# System: Rattus norvegicus
# method notes: Dose to produce 30% reduction in mean arterial pressure in rat when administered perorally
# Type: functional
# measurement conditions: Artery, po
Response key: label 1 means ED30 >= 0.2 mg/kg; label 0 means ED30 < 0.2 mg/kg.

Study these solved cases before continuing.
# compound, assigned category
rows = [
    ("CC(=O)c1cc2c(s1)[C@@H](NC(=O)c1ccc([N+](=O)[O-])cc1)[C@H](O)C(C)(C)O2", "label 1"),
    ("CC(=O)c1cc2c(s1)[C@@H](NC(=O)c1ccc(F)cc1)[C@H](O)C(C)(C)O2", "label 0"),
    ("CC(=O)c1cc2c(s1)[C@@H](NC(=O)c1ccc(F)c(F)c1)[C@H](O)C(C)(C)O2", "label 0"),
    ("CC(=O)c1cc2c(s1)[C@@H](NC(=O)c1ccc(Cl)cc1)[C@H](O)C(C)(C)O2", "label 0"),
    ("CC1(C)Oc2cc([N+](=O)[O-])sc2[C@@H](N2CCCCC2=O)[C@@H]1O", "label 0"),
    ("CC1(C)Oc2cc([N+](=O)[O-])sc2[C@@H](N2Cc3ccccc3C2=O)[C@@H]1O", "label 1"),
    ("CC1(C)Oc2ccc(C#N)cc2[C@@H](N2CCCC2=O)[C@@H]1O [CROMAKALIM]", "label 0"),
]

Check the entry CC1(C)Oc2ccc(OC(F)(F)F)cc2[C@@H](N2Cc3ccccc3C2=O)[C@@H]1O [CELIKALIM] : does ED30 equal or exceed 0.2 mg/kg? label 1

* * *

# System: Rattus norvegicus
# method notes: Maximal change in mean arterial blood pressure comparing MAP immediately prior to and up to 240 min after oral dose in rat
# Format: functional
parameter measured: Change MAP (%)
Provide only the numeric value, understood in %.

Fill in: Change MAP of `CC(=O)c1cc2c(s1)[C@@H](NC(=O)c1ccc(F)cc1)[C@H](O)C(C)(C)O2` is ___ 75

Fill in: Change MAP of `CC1(C)Oc2ccc(C#N)cc2[C@@H](N2CCCC2=O)[C@@H]1O` is ___ 47

* * *

# Test system: Rattus norvegicus
# method notes: Maximal change in mean arterial blood pressure comparing MAP immediately prior to and up to 240 min after oral dose in rat
# Assay type: functional
parameter measured: Change MAP (%)
Provide only the numeric value, understood in %.

API: value(readout=Change MAP, system=Rattus norvegicus) for record `CC(=O)c1cc2c(s1)[C@@H](NC(=O)c1ccc([N+](=O)[O-])cc1)[C@H](O)C(C)(C)O2` 63

API: value(readout=Change MAP, system=Rattus norvegicus) for record `CC1(C)Oc2ccsc2[C@@H](NC(=O)c2ccccc2)[C@@H]1O` 35

API: value(readout=Change MAP, system=Rattus norvegicus) for record `CC(=O)c1cc2c(s1)[C@@H](NC(=O)c1ccc(F)c(F)c1)[C@H](O)C(C)(C)O2` 62

API: value(readout=Change MAP, system=Rattus norvegicus) for record `CC(=O)c1cc2c(s1)[C@@H](NC(=O)c1ccc(C(F)(F)F)cc1)[C@H](O)C(C)(C)O2` 26

* * *

# Test system: Rattus norvegicus
# method notes: Maximal change in mean arterial blood pressure comparing MAP immediately prior to and up to 240 min after oral dose in rat
# Assay type: functional
Response key: true means Change MAP >= 30%; false means Change MAP < 30%.

# structure string, assayed system, assigned category
rows = [
    ("CC1(C)Oc2cc([N+](=O)[O-])sc2[C@@H](NC(=O)c2ccccc2)[C@@H]1O", "Rattus norvegicus", "true"),
    ("CC(=O)c1cc2c(s1)[C@@H](NC(=O)c1cccc([N+](=O)[O-])c1)[C@H](O)C(C)(C)O2", "Rattus norvegicus", "true"),
    ("COc1ccc(C(=O)N[C@@H]2c3sc(C(C)=O)cc3OC(C)(C)[C@H]2O)cc1", "Rattus norvegicus", "false"),
    ("CC1(C)Oc2cc([N+](=O)[O-])sc2[C@@H](NC(=O)c2ccc([N+](=O)[O-])cc2)[C@@H]1O", "Rattus norvegicus", "false"),
]

As a next step, examine the compound that follows.
Check the entry `CC(=O)c1cc2c(s1)[C@@H](NC(=O)c1cccc(Cl)c1)[C@H](O)C(C)(C)O2` : does Change MAP equal or exceed 30%? true
